test: PK protocol: pharmacokinetic parameters in male Sprague Dawley rats (intravenous or oral); type: in vivo; conditions: plasma, intravenous administration, 1 mg/kg, rat, read-out: Vdss
Counter-ions that a name gives are not always drawn.
TEST READOUT: Vd (L/kg)

COMPOUND | TEST READOUT | REPORTED
O=C(Nc1c2c(cc3c1CCC3)CCC2)NS(=O)(=O)CCN1CCC1 [Example 29, Potassium Salt] | Vd | 0.53
CCN(CC)CCCS(=O)(=O)NC(=O)Nc1c2c(cc3c1CCC3)CCC2 [Example 3, potassium salt] | Vd | 0.79
CCN(CC)CCCS(=O)(=O)NC(=O)Nc1c(-c2cccnc2)cc(F)cc1C(C)C [Example 37] | Vd | 0.55
CN(C)CCCS(=O)(=O)NC(=O)Nc1c2c(cc3c1CCC3)CCC2 [Example 8, potassium salt] | Vd | 0.49

Every entry's value here was drawn from patent US20200331850A1.
